Exercise: state measured melting point for each of the compounds provided.

Record excerpt, results attached:
>>> result("C=CC[C@@H]1[C@H](O)[C@@H](O)C(=O)N1Cc1ccccc1 (relative stereo)")
"90 to 93 °C"
>>> result("CN1CCC(c2ccccc2)(C(C)(C)O)CC1")
"146 to 147 °C"
>>> result("COC(=O)c1cc(C(=O)c2cccc(Cl)c2)cn1C")
"126 °C"
>>> result("O=C(Nc1ccc(Oc2ccnc(NC3CCS(=O)(=O)C3)n2)c2ccccc12)c1cc(F)cc(N2CCOCC2)c1 (stereo unspecified)")
"150 to 151 °C"
>>> result("Nc1ccc(S(=O)(=O)c2cc(-c3ccc(F)cc3)nc(N3CCCC3)c2)cc1")
"245 to 246 °C"

Exercise: I am curious: what melting point value has been reported for `CCCCOc1ccc(OCCN2CCN(c3cc(Cl)nnc3Cl)CC2)cc1` ?
Solution: 135 to 136 °C
